Examples of binders with documented kon follow.
- Tested system: T1, human serum albumin (human, UniProt P02768 25-609)
- T1 construct: mature; Bought purified serum albumin; also called HSA; Human albumin
- Assay summary: SPR, Fab captured; albumin taken as HSA;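 further: antibody held on a capture surface, albumin injected for 3 min association then dissociation followed, signals corrected using a blank reference flow cell and buffer-only injections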
Answer by giving the amount and then stating its unit.

Binder: CA645 gL4gH44 Fab (Fab, V domains shown, Fab: human gamma1 CH1, human kappa (Km3); Kabat numbering) VH: EVQLLESGGGLVQPGGSLRLSCAVSGIDLSNYAINWVRQAPGKGLEWIGIIWASGTTFYATWAKGRFTISRDNSKNTVYLQMNSLRAEDTAVYYCARTVPLYSTAPYFDLWGQGTLVTVSS VL: DIQMTQSPSSVSASVGDRVTITCQSSPSVWSNFLSWYQQKPGKAPKLLIYEASKLTSGVPSRFSGSGSGTDFTLTISSLQPEDFATYYCGGGYSSISDTTFGGGTKVEIK
kon: 53500 M⁻¹ s⁻¹
--
Binder: CA645 gL13gH5 Fab (Fab, V domains shown, Fab: human gamma1 CH1, human kappa (Km3); Kabat numbering) VH: EVQLLESGGGLVQPGGSLRLSCAVSGIDLSNYAINWVRQAPGKGLEWIGIIWASGTTFYATWAKGRFTISRDNSKNTVYLQMNSLRAEDTAVYYCARTVPGYSTAPYFDLWGQGTLVTVSS VL: DIQMTQSPSSVSASVGDRVTITCQSSPIVWSNFLSWYQQKPGKAPKLLIYEASKLTSGVPSRFSGSGSGTDFTLTISSLQPEDFATYYCGGGYSSISDTTFGGGTKVEIK
kon: 57600 M⁻¹ s⁻¹
--
Binder: CA645 gL27gH5 Fab (Fab, V domains shown, Fab: human gamma1 CH1, human kappa (Km3); Kabat numbering) VH: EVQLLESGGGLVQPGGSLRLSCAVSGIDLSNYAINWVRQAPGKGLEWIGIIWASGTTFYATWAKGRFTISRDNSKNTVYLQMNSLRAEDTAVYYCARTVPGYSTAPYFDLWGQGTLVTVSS VL: DIQMTQSPSSVSASVGDRVTITCQSSPSVWSNYLSWYQQKPGKAPKLLIYEASKLTSGVPSRFSGSGSGTDFTLTISSLQPEDFATYYCGGGYSSISDTTFGGGTKVEIK
kon: 62100 M⁻¹ s⁻¹

Which kon value is on record for CA645 gL4gH38 Fab (Fab, V domains shown, Fab: human gamma1 CH1, human kappa (Km3); Kabat numbering) VH: EVQLLESGGGLVQPGGSLRLSCAVSGIDLSNYAINWVRQAPGKGLEWIGIIWASGTTYYATWAKGRFTISRDNSKNTVYLQMNSLRAEDTAVYYCARTVPGYSTAPYFDLWGQGTLVTVSS VL: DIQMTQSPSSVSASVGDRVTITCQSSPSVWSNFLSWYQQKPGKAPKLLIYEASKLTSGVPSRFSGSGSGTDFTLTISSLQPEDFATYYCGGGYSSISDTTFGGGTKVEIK ? 47500 M⁻¹ s⁻¹
